Where do the numbers come from? From patent US20220387557A1.

Target: T1, Fc tagged mouse TNFR1 (Sino Biological) (mouse, UniProt P25118 22-212, limits assumed)
T1 construct: Bought reagent; also called mTNFR1; mTNFR1-Fc; not shown: Fc tag of the bought protein
T1 sequence (looked up): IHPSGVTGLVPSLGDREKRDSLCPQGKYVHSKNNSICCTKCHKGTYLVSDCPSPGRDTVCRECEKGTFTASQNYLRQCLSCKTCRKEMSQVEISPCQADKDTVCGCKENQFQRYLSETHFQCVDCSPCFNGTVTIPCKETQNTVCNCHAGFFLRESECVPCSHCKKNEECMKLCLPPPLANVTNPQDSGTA
Experiment: SPR, Biacore single cycle kinetics, stability study, after 1 year at -80° C.
Method: Due to the limit in the number of available flow cells for analysis (three Fc per analysis, Fc2, Fc3 and Fc4, with Fc1 always being used as blank reference for non-specific subtraction), receptor binding was assessed in two separate overlapping runs using either: hTNFR1 (Fc2), hTNFR2 (Fc3) and mTNFR1 (Fc4), or; hTNFR1 (Fc2), mTNFR1 (Fc3) and mTNFR2 (Fc4). […]
Answer each item with its documented Kd.
Param answer (str): number followed by unit.

TNF mutein G4 (ligand, Human TNF mutein, SSTYNP at positions 84-89; also called mutTNF G4; mutTNF; not shown: C-terminal FLAG tag and His6 tag from vector pANT65) VRSSSRTPSDKPVAHVVANPQAEGQLQWLNRRANALLANGVELRDNQLVVPSEGLYLIYSQVLFKGQGCPSTHVLLTHTISRISSTYNPKVNLLSAIKSPCQRETPEGAEAKPWYEPIYLGGVFQLEKGDRLSAEINRPDYLDFAESGQVYFGIIAL | 0.0458 nM
TNF mutein B5 (ligand, Human TNF mutein, TGTYVD at positions 84-89; not shown: C-terminal FLAG tag and His6 tag from vector pANT65) VHSSSRTPSDKPVAHVVANPQAEGQLQWLNRRANALLANGVELRDNQLVVPSEGLYLIYSQVLFKGQGCPSTHVLLTHTISRITGTYVDKVNLLSAIKSPCQRETPEGAEAKPWYEPIYLGGVFQLEKGDRLSAEINRPDYLDFAESGQVYFGIIAL | 0.0977 nM

Respectfully, I request Kd for each entry included below.
1. TNF mutein B6 (ligand, Human TNF mutein, TGTYSY at positions 84-89; not shown: C-terminal FLAG tag and His6 tag from vector pANT65) VRSSSRTPSDKPVAHVVANPQAEGQLQWLNRRANALLANGVELRDNQLVVPSEGLYLIYSQVLFKGQGCPSTHVLLTHTISRITGTYSYKVNLLSAIKSPCQRETPEGAEAKPWYEPIYLGGVFQLEKGDRLSAEINRPDYLDFAESGQVYFGIIAL
2. TNF mutein F7 (ligand, Human TNF mutein, SETVVG at positions 84-89; not shown: C-terminal FLAG tag and His6 tag from vector pANT65) VHSSSRTPSDKPVAHVVANPQAEGQLQWLNRRANALLANGVELRDNQLVVPSEGLYLIYSQVLFKGQGCPSTHVLLTHTISRISETVVGKVNLLSAIKSPCQRETPEGAEAKPWYEPIYLGGVFQLEKGDRLSVEINRPDYLDFAESGQVYFGIIAL
3. TNF mutein F3 (ligand, Human TNF mutein, TTTYRL at positions 84-89; not shown: C-terminal FLAG tag and His6 tag from vector pANT65) VRSSSRTPSDKPVAHVVANPQAEGQLQWLNRRANALLANGVELRDNQLVVPSEGLYLIYSQVLFKGQGCPSTHVLLTHTISRITTTYRLKVNLLSAIKSPCQRETPEGAEAKPWYEPIYLGGVFQLEKGDRLSAEINRPDYLDFAESGQVYFGIVAL
4. TNF mutein B2 (ligand, Human TNF mutein, TASYSG at positions 84-89; not shown: C-terminal FLAG tag and His6 tag from vector pANT65) VRSSSRTPSDKPVAHVVANPQAEGQLQWLNRRANALLANGVELRDNQLVVPSEGLYLIYSQVLFKGQGCPSTHVLLTHTISRITASYSGKVNLLSAIKSPCQRETPEGAEAKPWYEPIYLGGVFQLEKGDRLSAEINRPDYLDFAESGQVYFGIIAL

// result
1: 0.0474 nM; 2: 0.165 nM; 3: 0.398 nM; 4: 0.0864 nM
